The reported measurements were obtained from patent US20160272706A1.

Measured IC50, listed per entry.
experimental-target: T1, Human IL-13 (human, UniProt P35225 35-146)
T1 construct: also called human interleukin 13 (Peprotech); the antigen
T1 sequence (P35225 35-146 limits assumed): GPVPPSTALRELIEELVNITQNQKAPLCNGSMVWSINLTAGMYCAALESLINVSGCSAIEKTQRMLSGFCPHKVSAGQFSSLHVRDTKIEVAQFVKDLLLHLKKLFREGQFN
assay-overview: biochemical receptor-ligand inhibition assay, purified scFv titrated; the IL-13 receptor used is not named in Example 1
Express the reported value numerically, then name its unit.

Input line: Using the record for 13NG0070 (scFv, V domains shown, purified scFv from the mini-recombination library; member of group m20; also called ZZ0SED-B06; copies: 1 + 1) VH: QVQLVQSGAEVKKPGASVKVSCKASGYTFTNYGLSWVRQAPGQGLEWMGWINYDGGNTQYGQEFQGRVTMTTDTSTSTAYMELRSLRSDDTAVYYCARDSSSSWARWFFDLWGRGTLVTVSS VL: SYVLTQPPSVSVAPGKTARIPCGGNMVGARLVHWYQQKPGQAPVLIVFDDEDRPSGIPERFSGSNSGNTATLTISRVEAGDEADYYCQVWDTGSRPVVFGGGTKLTVL , state its measured IC50.
Output line: 9.49 nM

Input line: Consider the binder 13NG0072 (scFv, V domains shown, purified scFv from the mini-recombination library; member of group m20; also called ZZ0SEA-H11; copies: 1 + 1) VH: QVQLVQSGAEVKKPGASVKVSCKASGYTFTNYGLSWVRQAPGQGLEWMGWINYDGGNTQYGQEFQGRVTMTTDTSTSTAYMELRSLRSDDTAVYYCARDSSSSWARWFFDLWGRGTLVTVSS VL: SYVLTQPPSVSVAPGKTARIPCGGNMVGARLVHWYQQKPGQAPVLIVYDDMDRPSGIPERFSGSNSGNTATLTISRVETGDEADYYCQVWDTGSRPVVFGGGTKLTVL . State its measured IC50.
Output line: 12.8 nM

Input line: Specify IC50 for 13NG0073 (antibody, V domains shown, IgG in the KinExA assay; also called IL13NG0073) VH: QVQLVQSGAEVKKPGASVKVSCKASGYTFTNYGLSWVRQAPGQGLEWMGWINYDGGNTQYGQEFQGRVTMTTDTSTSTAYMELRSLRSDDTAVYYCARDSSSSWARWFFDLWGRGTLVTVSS VL: SYVLTQPPSVSVAPGKTARIPCGGNLIGARLVHWYQQKPGQAPVLIIMDDIDRPSGIPERFSGSNSGNTATLTISRVEAGDEADYYCQVWDTGSRPVVFGGGTKLTVL and stop.
Output line: 8.09 nM
